assay: Mean residence time in Sprague-Dawley rat at 10 mg/kg, iv; format: ADME, organism-based; set-up: dose 10 mg/kg, route intravenous; conditions: in vivo
recordedMetric: MRT

1. Cc1nc(Nc2ncc(C(=O)Nc3c(C)cccc3Cl)s2)cc(N2CCN(CCO)CC2)n1.O [DASATINIB]
4.1 h

---

assay: Cmax in BALB/c mouse at 50 mg/kg, po after 4 hrs; format: ADME, organism-based; parameters: dose 50 mg/kg, route oral; details: in vivo
Listing: log10 of Cmax of selected compounds
recordedMetric: log10 of Cmax (log10 of the value in µM)

1) Cc1cccc(Cl)c1NC(=O)c1cnc(Nc2cccc(NCCO)n2)s1
0.85
2) Cc1nc(Nc2ncc(C(=O)Nc3c(C)cccc3Cl)s2)cc(N2CCC(CO)CC2)n1
0.40
3) Cc1cccc(Cl)c1NC(=O)c1cnc(Nc2cccc(NCCCN3CCOCC3)n2)s1
0.93
4) Cc1cccc(Cl)c1NC(=O)c1cnc(Nc2cc(NCCN3CCOCC3)ncn2)s1
0.98
5) Cc1nc(Nc2ncc(C(=O)Nc3c(C)cccc3Cl)s2)cc(N2CCN(CCO)CC2)n1.O
0.43
6) Cc1nc(Nc2ncc(C(=O)Nc3c(C)cccc3Cl)s2)cc(N2CCOCC2)n1
-1.17
7) Cc1cccc(Cl)c1NC(=O)c1cnc(Nc2cc(N3CCOCC3)ncn2)s1
-0.02
8) Cc1cccc(Cl)c1NC(=O)c1cnc(Nc2cccc(NCCCn3ccnc3)n2)s1
-1.06
9) Cc1nc(NCCCN2CCOCC2)cc(Nc2ncc(C(=O)Nc3c(C)cccc3Cl)s2)n1
0.49
10) Cc1nc(NCCN2CCOCC2)cc(Nc2ncc(C(=O)Nc3c(C)cccc3Cl)s2)n1
0.34
11) Cc1nc(NCCO)cc(Nc2ncc(C(=O)Nc3c(C)cccc3Cl)s2)n1
-0.10

---

Listing: fraction unbound at 10 µM of selected molecules
assay: Protein binding in human serum at 10 uM; format: ADME, cell-free; settings: read-out: PPB (converted)
recordedMetric: fraction unbound at 10 µM

1. Cc1nc(NCCCN2CCOCC2)cc(Nc2ncc(C(=O)Nc3c(C)cccc3Cl)s2)n1
0.08
2. Cc1cccc(Cl)c1NC(=O)c1cnc(Nc2cccc(NCCCn3ccnc3)n2)s1
0.01
3. Cc1cccc(Cl)c1NC(=O)c1cnc(Nc2cccc(NCCO)n2)s1
0.08

---

test: AUC (0-4 hrs) in BALB/c mouse at 50 mg/kg, po after 4 hrs; assay type: ADME, organism-based; parameters: time < 4 hr, dose 50 mg/kg, route oral; conditions: plasma
Listing: log10 AUC(0-t) at 4 h of selected molecules
recordedMetric: log10 AUC(0-t) at 4 h (log10 of the value in µM·h)

1) Cc1cccc(Cl)c1NC(=O)c1cnc(Nc2cccc(NCCO)n2)s1
0.86
2) Cc1nc(Nc2ncc(C(=O)Nc3c(C)cccc3Cl)s2)cc(N2CCC(CO)CC2)n1
0.54
3) Cc1nc(NCCCN2CCOCC2)cc(Nc2ncc(C(=O)Nc3c(C)cccc3Cl)s2)n1
1.04
4) Cc1cccc(Cl)c1NC(=O)c1cnc(Nc2cccc(NCCCn3ccnc3)n2)s1
-0.80
5) Cc1nc(Nc2ncc(C(=O)Nc3c(C)cccc3Cl)s2)cc(N2CCOCC2)n1
-0.80
6) Cc1cccc(Cl)c1NC(=O)c1cnc(Nc2cc(N3CCOCC3)ncn2)s1
0.23
7) Cc1nc(NCCO)cc(Nc2ncc(C(=O)Nc3c(C)cccc3Cl)s2)n1
0.18
8) Cc1nc(Nc2ncc(C(=O)Nc3c(C)cccc3Cl)s2)cc(N2CCN(CCO)CC2)n1.O
0.68
9) Cc1nc(NCCN2CCOCC2)cc(Nc2ncc(C(=O)Nc3c(C)cccc3Cl)s2)n1
0.49
10) Cc1cccc(Cl)c1NC(=O)c1cnc(Nc2cc(NCCN3CCOCC3)ncn2)s1
1.23
11) Cc1cccc(Cl)c1NC(=O)c1cnc(Nc2cccc(NCCCN3CCOCC3)n2)s1
1.11

---

system: K562; assay: Antiproliferative activity against human K562 cells after 72 hrs; type: functional, cell-based; details: K562, 72 h
recordedMetric: IC50

1. Cc1nc(Nc2ncc(C(=O)Nc3c(C)cccc3Cl)s2)cc(N2CCN(CCO)CC2)n1.O [DASATINIB]
< 1 nM
2. Cc1nc(Nc2ncc(C(=O)Nc3c(C)cccc3Cl)s2)cc(N2CCOCC2)n1
< 3 nM
3. Cc1nc(Nc2ncc(C(=O)Nc3c(C)cccc3Cl)s2)cc(N2CCC(CO)CC2)n1
< 1 nM
4. Cc1cccc(Cl)c1NC(=O)c1cnc(Nc2cc(NCCN3CCOCC3)ncn2)s1
< 2 nM
5. Cc1nc(NCCN2CCOCC2)cc(Nc2ncc(C(=O)Nc3c(C)cccc3Cl)s2)n1
< 1 nM

---

test system: K562; test: Antiproliferative activity against human K562 cells after 72 hrs; type: functional, cell-based; settings: K562, 72 h
Listing: IC50 of selected molecules
recordedMetric: IC50

1) Cc1cccc(Cl)c1NC(=O)c1cnc(Nc2cccc(NCCCN3CCOCC3)n2)s1
< 2 nM
2) Cc1cccc(Cl)c1NC(=O)c1cnc(Nc2cccc(NCCO)n2)s1
< 3 nM
3) Cc1cccc(Cl)c1NC(=O)c1cnc(Nc2cccc(NCCCn3ccnc3)n2)s1
< 3 nM
4) Cc1cccc(Cl)c1NC(=O)c1cnc(Nc2cc(N3CCOCC3)ncn2)s1
< 3 nM
5) Cc1cc(Nc2ncc(C(=O)Nc3c(C)cccc3Cl)s2)nc(C)n1
1.6 nM
6) Cc1nc(NCCO)cc(Nc2ncc(C(=O)Nc3c(C)cccc3Cl)s2)n1
< 4 nM
7) Cc1nc(NCCCN2CCOCC2)cc(Nc2ncc(C(=O)Nc3c(C)cccc3Cl)s2)n1
< 2 nM

---

test: Cmax in Sprague-Dawley rat at 10 mg/kg, po; assay type: ADME, organism-based; set-up: dose 10 mg/kg, route oral; conditions: in vivo
recordedMetric: Cmax (nM)

1. Cc1nc(Nc2ncc(C(=O)Nc3c(C)cccc3Cl)s2)cc(N2CCN(CCO)CC2)n1.O
500

---

test system: PC-3; assay: cells; conditions: Homo sapiens, PC-3, 72 h
Lab note - cut at 10 nM for IC50: met if strictly below, not met if not.

1) Cc1nc(NCCO)cc(Nc2ncc(C(=O)Nc3c(C)cccc3Cl)s2)n1
not met
2) Cc1nc(Nc2ncc(C(=O)Nc3c(C)cccc3Cl)s2)cc(N2CCC(CO)CC2)n1
not met
3) Cc1cccc(Cl)c1NC(=O)c1cnc(Nc2cccc(NCCO)n2)s1
not met
4) Cc1nc(Nc2ncc(C(=O)Nc3c(C)cccc3Cl)s2)cc(N2CCOCC2)n1
met
5) Cc1nc(Nc2ncc(C(=O)Nc3c(C)cccc3Cl)s2)cc(N2CCN(CCO)CC2)n1.O [DASATINIB]
met
6) Cc1cccc(Cl)c1NC(=O)c1cnc(Nc2cc(NCCN3CCOCC3)ncn2)s1
not met
7) Cc1cc(Nc2ncc(C(=O)Nc3c(C)cccc3Cl)s2)nc(C)n1
not met
8) Cc1cccc(Cl)c1NC(=O)c1cnc(Nc2cccc(NCCCn3ccnc3)n2)s1
met
9) Cc1nc(NCCCN2CCOCC2)cc(Nc2ncc(C(=O)Nc3c(C)cccc3Cl)s2)n1
not met
10) Cc1nc(NCCN2CCOCC2)cc(Nc2ncc(C(=O)Nc3c(C)cccc3Cl)s2)n1
not met
11) Cc1cccc(Cl)c1NC(=O)c1cnc(Nc2cc(N3CCOCC3)ncn2)s1
not met

---

assay: Cmax in Sprague-Dawley rat at 10 mg/kg, iv; assay type: ADME, organism-based; parameters: dose 10 mg/kg, route intravenous; details: in vivo
recordedMetric: Cmax (µM)

1) Cc1nc(Nc2ncc(C(=O)Nc3c(C)cccc3Cl)s2)cc(N2CCN(CCO)CC2)n1.O
13.2

---

test: Mean residence time in Sprague-Dawley rat at 10 mg/kg, po; assay type: ADME, organism-based; parameters: dose 10 mg/kg, route oral; details: in vivo
recordedMetric: MRT (h)

1. Cc1nc(Nc2ncc(C(=O)Nc3c(C)cccc3Cl)s2)cc(N2CCN(CCO)CC2)n1.O
6.7

---

test system: Rattus norvegicus; assay: Clearance in Sprague-Dawley rat at 10 mg/kg, iv; assay type: ADME, organism-based; set-up: dose 10 mg/kg, route intravenous; details: in vivo
recordedMetric: clearance (mL/min/kg)

1. Cc1nc(Nc2ncc(C(=O)Nc3c(C)cccc3Cl)s2)cc(N2CCN(CCO)CC2)n1.O
26.4

---

assay: Plasma concentration in BALB/c mouse at 50 mg/kg, po after 4 hrs; format: ADME, organism-based; design: dose 50 mg/kg, route oral
recordedMetric: concentration at 4 h (nM)

1) Cc1nc(Nc2ncc(C(=O)Nc3c(C)cccc3Cl)s2)cc(N2CCOCC2)n1
37
2) Cc1cccc(Cl)c1NC(=O)c1cnc(Nc2cccc(NCCCN3CCOCC3)n2)s1
1100
3) Cc1nc(NCCCN2CCOCC2)cc(Nc2ncc(C(=O)Nc3c(C)cccc3Cl)s2)n1
3100
4) Cc1nc(NCCN2CCOCC2)cc(Nc2ncc(C(=O)Nc3c(C)cccc3Cl)s2)n1
280
5) Cc1cccc(Cl)c1NC(=O)c1cnc(Nc2cccc(NCCCn3ccnc3)n2)s1
33
6) Cc1cccc(Cl)c1NC(=O)c1cnc(Nc2cccc(NCCO)n2)s1
300
7) Cc1cccc(Cl)c1NC(=O)c1cnc(Nc2cc(N3CCOCC3)ncn2)s1
220
8) Cc1nc(NCCO)cc(Nc2ncc(C(=O)Nc3c(C)cccc3Cl)s2)n1
170
9) Cc1nc(Nc2ncc(C(=O)Nc3c(C)cccc3Cl)s2)cc(N2CCN(CCO)CC2)n1.O
700
10) Cc1nc(Nc2ncc(C(=O)Nc3c(C)cccc3Cl)s2)cc(N2CCC(CO)CC2)n1
180
11) Cc1cccc(Cl)c1NC(=O)c1cnc(Nc2cc(NCCN3CCOCC3)ncn2)s1
1900
